Test system: Porcine atria myofibrils (atrial myosin ATPase)
assaySummary: Myofibril ATPase assay, porcine atria myofibrils
Assay type: biochemical
setupConditions: Y75 value (no ‡ mark); porcine atria myofibrils
List of Atrial EC25 values.
Kindly answer with a numeric value in µM, unit omitted.

Which Atrial EC25 reading was recorded for the compound C[C@H](NC(=O)[C@H](C)c1c(C(F)(F)F)c2cc(F)ccc2[nH]c1=O)c1ccc(F)cc1F (single isomer, unassigned) [compound 58] ?
0.06

---

List of Atrial EC25 values.
Test system: Porcine atria myofibrils (atrial myosin ATPase)
assaySummary: Myofibril ATPase assay, porcine atria myofibrils
Type: biochemical
setupConditions: porcine atria myofibrils; Y75 value (75% activity relative to no compound)
Description: Example 1. Myofibril ATPase Assay Myofibril ATPase assays are known in the art to be useful in evaluating small molecules for the treatment of HCM and other cardiac indications. Myosin ATPase activity is assessed by using a coupled reaction system, in which ADP generated by the myosin ATPase function is coupled to the disappearance of NADH through the pyruvate kinase/lactate dehydrogenase (PK-LDH) system. […]
Kindly answer with a numeric value in µM, unit omitted.

Example results:
>>> print(df.to_string())
                                   compound  testresult
0  Cc1ccc2[nH]c(=O)c(CC(=O)N[C@H](C)c3ncc(C#N)cc3F)c(C)c2n1        0.80
1  COc1nccc2[nH]c(=O)c(CC(=O)N[C@@H](C)c3ncc(C#N)cc3F)c(C(F)(F)F)c12 (single isomer, unassigned)        0.70
2  Cc1nccc2[nH]c(=O)c(CC(=O)N[C@H](C)c3ccc(C#N)cc3F)c(Cl)c12        0.44
3  Cc1c([C@@H](C)C(=O)N[C@@H](C)c2ccc(F)cc2F)c(=O)[nH]c2ccc(C(F)(F)F)nc12 (single isomer, unassigned)        0.06

Consider now this further compound.
Which Atrial EC25 reading was recorded for the compound Cc1c(CC(=O)N[C@@H](C)c2ccc(C#N)cn2)c(=O)[nH]c2ccnc(C(F)(F)F)c12 ?
0.33

---

Tested on: Rabbit Psoas myofibrils (skeletal myosin ATPase)
assaySummary: Myofibril ATPase assay, rabbit psoas (skeletal) myofibrils
Assay type: biochemical
setupConditions: rabbit psoas myofibrils; Y75 value
endpoint: Skeletal EC25 (nM)
Kindly answer with a numeric value in nM, unit omitted.

Example results:
>>> df
                                   compound                           systemundertest       endpoint  unitofmeasurement  testresult
0  Cc1c(C(C)C(=O)N[C@@H](C)c2ccc(F)cc2F)c(=O)[nH]c2ccnc(I)c12 (stereo partly shown)  Rabbit Psoas myofibrils (skeletal myosin ATPase)  Skeletal EC25                 nM         130
1  COc1ccccc1[C@H](C)NC(=O)Cc1c(C)c2c(C)nccc2[nH]c1=O (single isomer, unassigned)  Rabbit Psoas myofibrils (skeletal myosin ATPase)  Skeletal EC25                 nM      100000
2  C[C@H](NC(=O)Cc1c(C(F)(F)F)c2c(C3CC3)nccc2[nH]c1=O)c1ccc(F)cc1F  Rabbit Psoas myofibrils (skeletal myosin ATPase)  Skeletal EC25                 nM         200
3  Cc1c(CC(=O)N[C@@H](C)c2ccc(F)cc2F)c(=O)[nH]c2ccnc(OCC(C)C)c12  Rabbit Psoas myofibrils (skeletal myosin ATPase)  Skeletal EC25                 nM         370
4  Cc1c(CC(=O)N[C@@H]2c3c(F)cc(F)cc3OC2(C)C)c(=O)[nH]c2ccnc(C#N)c12 (single isomer, unassigned)  Rabbit Psoas myofibrils (skeletal myosin ATPase)  Skeletal EC25                 nM       26500
5  Cc1nccc2[nH]c(=O)c([C@H](C)C(=O)N[C@@H](C)c3ncc(C#N)cc3F)c(C)c12 (single isomer, unassigned)  Rabbit Psoas myofibrils (skeletal myosin ATPase)  Skeletal EC25                 nM        1220

Which Skeletal EC25 reading was recorded for the compound Cc1nccc2[nH]c(=O)c(CC(=O)N[C@@H](C)c3ccc(C#N)cc3F)c(C)c12 (single isomer, unassigned) ?
20
